Entries and their Therm_solubility values follow.
EXPERIMENTAL_DETAILS: Thermodynamic aqueous solubility of the compound in water by nitrogen detection method
Type: physicochemical
EXPERIMENTAL_SETUP: buffer
Phrase the answer as number then unit, nothing more needed.

O=C(Nc1ccc(Cl)cc1)C1CN(C(=O)c2cccc(-c3ccncc3)c2)CC(F)(F)C1 (centres undefined) ... 23.1 µg/mL
O=C(Nc1ccc(Cl)cc1)C1CN(C(=O)c2cc(F)cc(-c3ccncc3)c2)CC(F)(F)C1 (centres undefined) ... 9.8 µg/mL
O=C(Nc1ccc(Cl)cc1)C1CN(C(=O)c2cccc(-c3ccco3)c2)CC(F)(F)C1 (centres undefined) ... 2.3 µg/mL
O=C(Nc1ccc(Cl)cc1)C1CN(C(=O)c2cccc(-c3ncccn3)c2)CC(F)(F)C1 (centres undefined) ... 75.4 µg/mL
Cn1cncc1-c1cccc(C(=O)N2CC(C(=O)Nc3ccc(Cl)cc3)CC(F)(F)C2)c1 (centres undefined) ... 14.9 µg/mL

Query block: GET /values?readout=Therm_solubility&item= O=C(Nc1ccc(Cl)cc1)C1CN(C(=O)c2cncc(-c3ccncc3)c2)CC(F)(F)C1 (centres undefined)
Result block: 62 µg/mL
